Below, each of the variants is paired with its reported exon inclusion enrichment index value.
B1: mRNA-splicing (parent)
chain: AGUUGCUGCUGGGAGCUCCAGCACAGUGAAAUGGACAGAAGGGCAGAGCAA

variants of: B1; assay: exon inclusion enrichment index; higher = more inclusion; WT1 exon 5 minigene, HEK293

Example entries and their recorded answers appear below.
Query: # exon inclusion enrichment index lookup, item G5A C6U U7A G8U C9A C22A A23C
Result: 0.189

Query: G11A G12C ?
Result: 1.9

Query: Try G5A C6G U7G C9A U10A G11U next.
Result: 0.00545

---
Query: Field request: exon inclusion enrichment index | item: C6A U7A G8U C9A U10C
Result: 1.38

Query: Now give it for G5C C6A U7C G8A U10A G21C C22G too.
Result: 0.322

Query: Now give it for G5A C6U U7A G8U C9A G12U G13A too.
Result: 0.00185

Query: Then what about the variant G5C C6G U7C U10C G38A A39G ?
Result: 2.72
